# System: murine 3T3 fibroblasts
# runDescription: primary screen, percent viability or growth; higher = less effect of the substance
Can you tell me Mammalian (3T3) cell % growth at 10 uM for the items I'm about to list?
// return numeric value only (unit: %, not printed)

Q: Endpoint output: Mammalian (3T3) cell % growth at 10 uM of "CN1CCC(=C2c3ccccc3Sc3ccccc32)CC1" . Value?
A: 98.5

Q: Endpoint output: Mammalian (3T3) cell % growth at 10 uM of "COc1ccc2cc1Oc1ccc(cc1)C[C@H]1c3cc(c(OC)cc3CCN1C)Oc1c(OC)c(OC)cc3c1[C@H](C2)N(C)CC3" . Value?
A: 14.6

Q: Endpoint output: Mammalian (3T3) cell % growth at 10 uM of C=CC(C)(O)CCC1C(=C)CC(OC(C)=O)C2C(C)(C)CCCC12C (centres unmarked) . Value?
A: 63.7

Q: Endpoint output: Mammalian (3T3) cell % growth at 10 uM of CC12C=CC(=O)C=C1CCC1C2CCC2(C)C(=O)CCC12 (centres unmarked) . Value?
A: 72.1

Q: Endpoint output: Mammalian (3T3) cell % growth at 10 uM of "CN(C)CCCN1c2ccccc2Sc2ccccc21.Cl" . Value?
A: 98.7

---

# System: murine 3T3 fibroblasts
# runDescription: primary screen, percent viability or growth; higher = less effect of the substance
measuredProperty: Mammalian (3T3) cell % growth at 10 uM (%)
// return numeric value only (unit: %, not printed)

Q: Endpoint output: Mammalian (3T3) cell % growth at 10 uM of "NS(=O)(=O)c1cc(C(=O)O)c(NCc2ccco2)cc1Cl" . Value?
A: 79.1

Q: Endpoint output: Mammalian (3T3) cell % growth at 10 uM of "CN(C)CCCN1c2ccccc2Sc2ccc(Cl)cc21" . Value?
A: 99.3

Q: Endpoint output: Mammalian (3T3) cell % growth at 10 uM of "CCC(=O)O[C@H]1CC[C@H]2[C@@H]3CCc4cc(O)ccc4[C@H]3CC[C@]12C" . Value?
A: 100

Q: Endpoint output: Mammalian (3T3) cell % growth at 10 uM of COc1cc2c(cc1OC)C1C(=O)c3c(cc4c(c3O)C=CC(C)(C)O4)OC1CO2 (stereo not drawn) . Value?
A: 34.3

Q: Endpoint output: Mammalian (3T3) cell % growth at 10 uM of CCC1(O)CC2CN(CCc3c([nH]c4ccccc34)C(C(=O)OC)(c3cc4c(cc3OC)N(C)C3C(O)(C(=O)OC)C(OC(C)=O)C5(CC)C=CCN6CCC43C65)C2)C1.O=S(=O)(O)O (stereo not drawn) . Value?
A: 36.2

Q: Endpoint output: Mammalian (3T3) cell % growth at 10 uM of "Nc1ccn([C@@H]2O[C@H](CO)[C@@H](O)[C@@H]2O)c(=O)n1" . Value?
A: 48.4

Q: Endpoint output: Mammalian (3T3) cell % growth at 10 uM of "COc1cc2nc(N3CCN(C(=O)c4ccco4)CC3)nc(N)c2cc1OC.Cl" . Value?
A: 70.7

Q: Endpoint output: Mammalian (3T3) cell % growth at 10 uM of Oc1cc2c(cc1O)C1c3ccc(O)c(O)c3OCC1(O)C2 (stereo not drawn) . Value?
A: 100

Q: Endpoint output: Mammalian (3T3) cell % growth at 10 uM of "Cc1nc2ccccn2c(=O)c1CCN1CCC(C(=O)c2ccc(F)cc2)CC1" . Value?
A: 91.6

---

Can you tell me Mammalian (3T3) cell % growth at 10 uM for the items I'm about to list?
# Test system: murine 3T3 fibroblasts
# runDescription: primary screen, percent viability or growth; higher = less effect of the substance
Please make sure the unit comes right after the number.

Q: # get_value(readout= Mammalian (3T3) cell % growth at 10 uM, system= murine 3T3 fibroblasts) for CNC1CCC(c2ccc(Cl)c(Cl)c2)c2ccccc21.Cl (centres unmarked)
A: 100%

Q: # get_value(readout= Mammalian (3T3) cell % growth at 10 uM, system= murine 3T3 fibroblasts) for "O=c1c(O)c(-c2ccc(O)c(O)c2)oc2c(O)c(O)cc(O)c12"
A: 54.6%

Q: # get_value(readout= Mammalian (3T3) cell % growth at 10 uM, system= murine 3T3 fibroblasts) for C=C1C2CCC3(C)C(c4ccoc4)OC(=O)CC13OC1CC(OC(C)=O)C(C)(C)C(CC(=O)OC)C12C (centres unmarked)
A: 84.1%

Q: # get_value(readout= Mammalian (3T3) cell % growth at 10 uM, system= murine 3T3 fibroblasts) for CC1OC(=O)C(C(C)C)NC(=O)C(C(C)C)OC(=O)C(C(C)C)NC(=O)C(C)OC(=O)C(C(C)C)NC(=O)C(C(C)C)OC(=O)C(C(C)C)NC(=O)C(C)OC(=O)C(C(C)C)NC(=O)C(C(C)C)OC(=O)C(C(C)C)NC1=O (centres unmarked)
A: 16.4%

Q: # get_value(readout= Mammalian (3T3) cell % growth at 10 uM, system= murine 3T3 fibroblasts) for "COc1cc(O)c(C(=O)/C=C/c2ccc(OC)c(O)c2)c(OC)c1"
A: 6%

Q: # get_value(readout= Mammalian (3T3) cell % growth at 10 uM, system= murine 3T3 fibroblasts) for CC(C)COCC(CN(Cc1ccccc1)c1ccccc1)N1CCCC1.Cl (centres unmarked)
A: 89.6%

Q: # get_value(readout= Mammalian (3T3) cell % growth at 10 uM, system= murine 3T3 fibroblasts) for "C[C@@H]1[C@H](O)[C@@H](C)/C=C/C=C/C=C/C=C/C=C/C=C/C=C/[C@H](O[C@@H]2O[C@H](C)[C@@H](O)[C@H](N)[C@@H]2O)C[C@@H]2O[C@](O)(C[C@@H](O)C[C@@H](O)[C@H](O)CC[C@@H](O)C[C@@H](O)CC(=O)O[C@H]1C)C[C@H](O)[C@H]2C(=O)O"
A: 89.7%

Q: # get_value(readout= Mammalian (3T3) cell % growth at 10 uM, system= murine 3T3 fibroblasts) for "COc1cc(O)c(C(=O)/C=C/c2ccc(O)c(OC)c2)c(OC)c1"
A: 10.2%

---

# Test system: murine 3T3 fibroblasts
# runDescription: primary screen, percent viability or growth; higher = less effect of the substance
Param threshold (80%) applies to Mammalian (3T3) cell % growth at 10 uM; output met when value >= threshold, not met when value < threshold.

Q: For this compound, is measured Mammalian (3T3) cell % growth at 10 uM 80% or higher? "Cc1cccc2c3c(ccc12)C1=C(C(=O)C3=O)[C@@H](C)CO1"
A: not met

Q: For this compound, is measured Mammalian (3T3) cell % growth at 10 uM 80% or higher? "Cl.Cl.O=C1c2c(O)ccc(O)c2C(=O)c2c(NCCNCCO)ccc(NCCNCCO)c21"
A: not met

Q: For this compound, is measured Mammalian (3T3) cell % growth at 10 uM 80% or higher? "COc1c(C)c2c(c(O)c1C/C=C(\C)CCC(=O)O)C(=O)OC2"
A: met

Q: For this compound, is measured Mammalian (3T3) cell % growth at 10 uM 80% or higher? COC(=O)CC1C2(C)CC34OC5(C)OC6(C7/C(=C(\OC)C(C)C)C(=O)OC(c8ccoc8)C7(C)C(OC(=O)C(C)C)C(OC)C6(O5)C13C)C(OC)C4(OC)C2OC(C)=O (centres unmarked)
A: not met

Q: For this compound, is measured Mammalian (3T3) cell % growth at 10 uM 80% or higher? COc1c(-c2coc3cc4c(cc3c2=O)CC(O)C(C)(C)O4)ccc2c1C=CC(C)(C)O2 (centres unmarked)
A: not met

Q: For this compound, is measured Mammalian (3T3) cell % growth at 10 uM 80% or higher? "O=c1c(O)c(-c2ccccc2)oc2ccccc12"
A: met

Q: For this compound, is measured Mammalian (3T3) cell % growth at 10 uM 80% or higher? "Nc1nc(=S)c2[nH]cnc2[nH]1"
A: met

Q: For this compound, is measured Mammalian (3T3) cell % growth at 10 uM 80% or higher? CSc1ccc2c(c1)N(CCC1CCCCN1C)c1ccccc1S2 (centres unmarked)
A: not met

Q: For this compound, is measured Mammalian (3T3) cell % growth at 10 uM 80% or higher? "COc1cc(-c2cc(=O)c3c(O)c(OC)c(OC)c(OC)c3o2)cc(OC)c1OC"
A: not met

Q: For this compound, is measured Mammalian (3T3) cell % growth at 10 uM 80% or higher? COC1C=CC23c4cc5c(cc4CN(CC2O)C3C1)OCO5 (centres unmarked)
A: not met

Q: For this compound, is measured Mammalian (3T3) cell % growth at 10 uM 80% or higher? N#Cc1nn(-c2c(Cl)cc(C(F)(F)F)cc2Cl)c(N)c1S(=O)C(F)(F)F (centres unmarked)
A: met

---

Can you tell me Mammalian (3T3) cell % growth at 10 uM for the items I'm about to list?
# System: murine 3T3 fibroblasts
# runDescription: primary screen, percent viability or growth; higher = less effect of the substance
Please make sure the unit comes right after the number.

Q: Endpoint output: Mammalian (3T3) cell % growth at 10 uM of "CC[C@@]1([C@@H]2O[C@@H]([C@H]3O[C@@](O)(CO)[C@H](C)C[C@@H]3C)C[C@@H]2C)CC[C@H]([C@]2(C)CC[C@]3(C[C@H](O)[C@@H](C)[C@@H]([C@@H](C)[C@@H](OC)[C@H](C)C(=O)O)O3)O2)O1" . Value?
A: 41.3%

Q: Endpoint output: Mammalian (3T3) cell % growth at 10 uM of CNc1ccc(C(=O)CC(O)CCC(C)C2OC(=O)CC(O)CC(=O)CC(O)CC(O)CC(O)CC(O)CC3(O)CC(O)C(C(=O)OC)C(CC(O[C@@H]4O[C@H](C)[C@@H](O)[C@H](N)[C@@H]4O)/C=C/C=C/C=C/C=C\C=C/C=C/C=C/C2C)O3)cc1 (stereo partly shown) . Value?
A: 97.3%

Q: Endpoint output: Mammalian (3T3) cell % growth at 10 uM of "CC[C@@H](C(=O)[C@@H](C)[C@@H](O)[C@H](C)CCc1ccc(C)c(O)c1C(=O)O)[C@H]1O[C@](CC)([C@H]2CC[C@](O)(CC)[C@H](C)O2)C[C@@H]1C" . Value?
A: 50.1%

Q: Endpoint output: Mammalian (3T3) cell % growth at 10 uM of "CO[C@H]1C[C@H](O[C@H]2[C@H](C)[C@@H](O[C@@H]3O[C@H](C)C[C@H](N(C)C)[C@H]3O)[C@@H](C)C[C@@]3(CO3)C(=O)[C@H](C)[C@@H](O)[C@@H](C)[C@@H](C)OC(=O)[C@@H]2C)O[C@@H](C)[C@@H]1O.O=P(O)(O)O" . Value?
A: 100%
